growth inhibition listing for selected molecules.
- protocolDescription: NCI Yeast Anticancer Drug Screen. Data for the wt1 strain (AID 149);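 further: 0% = growth of vehicle-treated wt1 cultures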
- studyConditions: S. cerevisiae wt1 strain (SPY 50644) growth inhibition; at 100.0 µM; stronger effect = higher value
The panel holds about 79,000 compounds, 15% with a hit somewhere; the sample as a whole holds those more often.
The reply should be a number in %, with the unit left off.

The cases that follow already have their growth inhibition on record.
molecule: O=C(CCCN1CCC(Nc2ccc(F)cc2)(c2nnnn2C2CCCCC2)CC1)c1ccc(F)cc1
growth inhibition, %: 89
//
molecule: O=[N+]([O-])c1cccc2nc3ccccc3c(NCCCN3CCCCC3)c12
growth inhibition, %: 97
//
molecule: CCOC(=O)/C(=C\c1ccc(F)cc1)C(C)=O
growth inhibition, %: 98
//
molecule: C/C1=C/C2OC(=O)C3(C)C2C(CC2(C)OC1=CC2=O)OC3(O)C(C)C (stereo unspecified)
growth inhibition, %: -33
//
molecule: COC(=O)/C(C#N)=C\NC(=S)C(N)=S
growth inhibition, %: 98
//
molecule: C1=CCN([B-](c2ccccc2)[C+]2CCCCC2)C=C1
growth inhibition, %: 98
//
molecule: BrC1C2CCC3OC3C12 (stereo unspecified)
growth inhibition, %: 99
//
molecule: COc1ccc(C(C)c2cc3c(cc2OC(C)O)OCO3)cc1 (stereo unspecified)
growth inhibition, %: 88

The reported value for CC1CCC(C2=CSC3CCCCC3N2)CC1 (stereo unspecified) in terms of growth inhibition is 65

Documented growth inhibition of "O=C1C[C@H]2[C@H](c3ccc(Br)cc3)[C@H]3C(=O)c4ccccc4NC(=O)[C@@H]3[C@@]2(O)c2ccccc2N1" : 16

growth inhibition measured on "CCC(/C=C/c1ccccc1)=N\Nc1ccc(Cl)c(Cl)c1" = 93

---

- protocolDescription: NCI Yeast Anticancer Drug Screen. Data for the rad50 strain (AID 155);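 further: 0% = growth of vehicle-only cultures of the same strain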
- studyConditions: S. cerevisiae rad50 strain growth inhibition; at 100.0 µM; stronger effect = higher value
Compounds without any hit were thinned out: in the full panel of roughly 79,000, 15% have a hit.
measureName: growth inhibition (%)
Output spec: scalar in %, unitless text.

A selection of reference data follows.
compound: CC(C)OC(=O)NNc1cc(Cl)ccc1Cl
measureName: growth inhibition
readingUnit: %
number: 87

compound: CN(C)CCNC(=Cc1ccc2ccccc2[n+]1C)NCCN(C)C
measureName: growth inhibition
readingUnit: %
number: 1

compound: COc1ccc(/C=C2\SC(=S)N(/C=C3\C(=O)N(c4ccccc4)N=C3C)C2=O)cc1OC
measureName: growth inhibition
readingUnit: %
number: 71

In plain terms, "Cc1ccc(S(=O)(=O)N/N=C/C(Br)=C(/Br)C(=O)O)cc1" has a documented growth inhibition of 95

Given item "COc1cc2oc3ccccc3c(=O)c2cc1CSc1ccccc1N" , the value recorded as its growth inhibition is 7

In plain terms, BrC1C2CCC3OC3C12 (stereo not drawn) has a documented growth inhibition of 98

Documented growth inhibition of "Nc1ccc2cc(Br)ccc2c1Br" : 26

Lab note: measured growth inhibition of "COC(=N)c1ccc(O)c(C)c1" was 3

growth inhibition recorded for this compound, "CC/C(=C(\c1ccccc1)c1ccc(OCC[N+](C)(C)C)cc1)c1ccccc1" , is 99

Reported growth inhibition for "O=C1Nc2ccc(Br)cc2C1=Nc1ccc(Cl)cc1" was 64

Reported growth inhibition of "Cc1cc2nc3ccccc3n2c2ccccc12" : 91

Reported growth inhibition of "CC(=O)N1C=Cc2c(c(C)c3c([nH]c4ccccc43)c2C)C1" : 95

The reported growth inhibition of the compound "Clc1nc(Cl)nc(Nc2cccc3ccccc23)n1" was 97

---

- protocolDescription: NCI Yeast Anticancer Drug Screen. Data for the wt1 strain (AID 149);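 further: 0% = growth of vehicle-treated wt1 cultures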
- studyConditions: S. cerevisiae wt1 strain (SPY 50644) growth inhibition; at 11.0 µM; stronger effect = higher value
This is part of a sample that, as a whole, favours compounds with a hit. Of some 79,000 tested, about 15% had one in any assay. Activity calls are given as the source filed them. No stated cut-off is given here; in the data, active means growth inhibition above about 70%; inactive means the rest.
measureName: growth inhibition

molecule: O=C1C=C(NCCc2cc(Br)c(O)c(Br)c2)C(=O)c2ncccc21
measureName: growth inhibition
result: 27% (inactive)

molecule: O=C1C2=C(c3ccccc31)C(c1ccccc1)N1C(=O)CSC1=N2 (stereo not drawn)
measureName: growth inhibition
result: 15% (inactive)

molecule: O=C(c1ccccc1)[C@H]1Nc2ccc(Cl)cc2[C@H]2OCCC[C@@H]12
measureName: growth inhibition
result: -2% (inactive)

molecule: O=C1c2ccccc2C(=O)c2sc(Nc3ccccc3Cl)nc21
measureName: growth inhibition
result: 58% (inactive)

Okay, next one:
Noted for "CCN(CC)CCNc1ccc2ncn3c4ccc(O)cc4c(=O)c1c23" : its growth inhibition reads -4% (inactive)

---

- protocolDescription: NCI Yeast Anticancer Drug Screen. Data for the mec2-1 strain (AID 157)
- studyConditions: S. cerevisiae mec2-1 strain, at 100.0 µM, stronger effect = higher value
Compounds without any hit were thinned out: in the full panel of roughly 79,000, 15% have a hit.
Mark rule met for reported growth inhibition of 60% or greater; mark rule not met for anything smaller.

Here's what some known entries look like.
compound: NC(CS)C(=O)NCCNc1ccc(NCCNC(=O)C(N)CS)c2c1C(=O)c1c(O)ccc(O)c1C2=O (stereo unspecified)
assignedCategory: rule met
--
compound: COc1ccc2nc3cccc([N+](=O)[O-])c3c(NCCNCCN(C)C)c2c1
assignedCategory: rule not met
--
compound: NCCCSc1ccccc1
assignedCategory: rule not met
--
compound: N#CC1OB(O)c2ccccc21 (stereo unspecified)
assignedCategory: rule not met
--
compound: O=C(/C(=C/c1ccc(O)cc1)c1ccccc1)c1ccccc1
assignedCategory: rule met

hey, is growth inhibition for this one >= 60%? "O=C1C(=O)c2cccc([N+](=O)[O-])c2-c2ccccc21"
rule met

---

- protocolDescription: NCI Yeast Anticancer Drug Screen. Data for the rad14 strain (AID 159);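 further: 0% = growth of vehicle-treated control cultures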
- studyConditions: S. cerevisiae rad14 strain growth inhibition; at 11.0 µM; stronger effect = higher value
Compounds without any hit were thinned out: in the full panel of roughly 79,000, 15% have a hit.
measureName: growth inhibition (%)
Respond with the bare value in %.

Here's what some known entries look like.
compound: O=C(CN(c1ccccc1)c1ccccc1)n1nnc2ccccc21
growth inhibition, %: -18
--
compound: C=CC(C)(C)N1C(=O)C(C(C)=O)=C(O)C1Cc1c[nH]c2ccccc12 (stereo unspecified)
growth inhibition, %: -1
--
compound: OC1(c2ccccc2)C2CC=CC2C1(c1ccccc1)c1ccccc1 (stereo unspecified)
growth inhibition, %: 6
--
compound: COC(=O)C(=O)c1c(-c2ccc(Cl)c(Cl)c2)[nH]c2[nH]n(-c3ccccc3)c(=O)c2c1=O
growth inhibition, %: 46
--
compound: NC(N)=NC(N)=Nc1ccccc1 (tested in a mixture with another compound)
growth inhibition, %: -11
--
compound: O=C(/C=C/c1ccsc1)c1cccs1
growth inhibition, %: -8
--
compound: CC(C(=O)N1C(=O)N(C(=O)C(C)C(O)c2ccccc2)C2CCCCC21)C(O)c1ccccc1 (stereo unspecified)
growth inhibition, %: 4
--
compound: N#CC1OB(O)c2ccccc21 (stereo unspecified)
growth inhibition, %: -2

Measured growth inhibition of "CC1=NN(C(=O)c2ccccc2O)C(=O)/C1=C/c1ccco1" : 69

growth inhibition reading for "CCC(/C=C/c1ccccc1)=N\Nc1ccc(Cl)cc1" : 3

The compound listed as "CCC(/C=C/c1ccccc1)=N\Nc1ccc(Cl)c(Cl)c1" has a reported growth inhibition of -6

---

- protocolDescription: NCI Yeast Anticancer Drug Screen. Data for the wt2 strain (AID 169);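 further: 0% = growth of vehicle-treated yeast cultures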
- studyConditions: S. cerevisiae wt2 strain growth inhibition; at 11.0 µM; stronger effect = higher value
- Method: Growth inhibition of yeast strains with defined genetic alterations is measured as a screen for potential anti-cancer activity. Selected strains with alterations in DNA damage repair or cell cycle control were exposed to compounds and growth inhibition was measured relative to vehicle treated controls. The strain used in this assay is wt2
This is part of a sample that, as a whole, favours compounds with a hit. Of some 79,000 tested, about 15% had one in any assay.
Lab note: compare growth inhibition against 40%. Equal or greater, write yes. Smaller, write no.

Here's what some known entries look like.
compound: COc1ccc2cc3c4cc5c(cc4cc[n+]3cc2c1OC)OCO5
assignedCategory: yes

compound: CCCCCCC1OCC(O)C(OCCCC)O1 (configuration not stated)
assignedCategory: no

compound: NC(=O)NC1C(c2ccccc2)=C1c1ccccc1
assignedCategory: yes

compound: CCN(CC)CCNc1ccc2nc(C)n3c4ccc(O)cc4c(=O)c1c23
assignedCategory: no

compound: CC(=O)N1C=Cc2c(c(C)c3c([nH]c4ccccc43)c2C)C1
assignedCategory: yes

Okay, now this compound:
Check this compound for growth inhibition at or above 40%: "Nc1cc(Cl)ccc1Nc1ccccc1"
no

---

- protocolDescription: NCI Yeast Anticancer Drug Screen. Data for the wt1 strain (AID 149);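 further: 0% = growth of vehicle-treated wt1 cultures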
- studyConditions: S. cerevisiae wt1 strain (SPY 50644) growth inhibition; at 3.7 µM; stronger effect = higher value
About 79,000 compounds went through this panel and 15% of them were active in at least one assay; those are over-represented in the sample as a whole.
Measured growth inhibition by item
Use % as the unit, but write only the number.

# example entries with known answers
compound: Cc1cc(C)c(S(=O)(=O)c2ccc(Cl)cc2)c(C)c1
growth inhibition, %: -10
--
compound: Cc1ccnc2c(O)cccc12
growth inhibition, %: 19
--
compound: CC1=C(C)C(=O)C2=C(OCCO2)C1=O
growth inhibition, %: -5
--
compound: O=S(=O)(c1cccc(C(F)(F)F)c1)N1c2ccccc2-n2cccc2C1c1cccnc1 (stereo not given)
growth inhibition, %: -8
--
compound: CO[C@@]1([C@@H](Cl)c2ccccc2)C(=O)N(C)/C(=C\c2ccccc2)C(=O)N1C
growth inhibition, %: 0
--
compound: CN(C)CC(CN(C)C)C(=O)/C=C/c1ccc(Cl)cc1Cl
growth inhibition, %: -2

Query CCCCCCCCCCCCCCCCCCNc1nc(=O)n(C2CC(OP(=O)(O)OCC3OC(n4cc(F)c(=O)[nH]c4=O)CC3O)C(CO)O2)cc1F (stereo not given) yields growth inhibition of -4

Field growth inhibition (entry "CC/C(=C(\c1ccccc1)c1ccc(OCC[N+](C)(C)C)cc1)c1ccccc1" ) reads 12

"CC(C)OP(=O)(OC(C)C)/C(Cl)=N/Nc1ccc([N+](=O)[O-])cc1" yielded growth inhibition of -10

The recorded growth inhibition for CC(CN(C)C)C(=O)/C=C/c1ccc(Cl)c(Cl)c1 (stereo not given) is 6

Origin of the recorded values: PubChem BioAssay (NCI)
